# apparent Kd per entry
Test system: MS2 coat protein
Assay: apparent Kd, MS2 coat protein; higher = weaker binding; RNA-MaP array; FMN 200 µM where present
Details: designed as: OFF switch for flavin mononucleotide; no ligand
// units = nM; emit number, no label

biopolymer_sequence	apparent Kd [nM]
GAGUGACAUGAGGAUCACCCAUGUGAGGAUAUCGGACGGACCAAAUUAACAAUUUUUGCGAGAAGGCACAUCGG	59.5

Need apparent Kd of `GCAGCUAAUGCAGGAUAUCAGCACGUGUAGUGCUGAGAAGGGCACAUGAGGAUCACCCAUGUGAUCAAUCAAUGUUAAUGCUGC` , thanks.
9.43

And `UGUCGGAGCAGAGGAUAUUACAUGAGGAUCACCCAUGUAUGAACCAAUUGCUGGAAACAGCAAUGUAAGAAGGCUGCUCCGACA` ?
5.04

And `AAACAGGCAGGAUAUACAUGAGGAUCACCCAUGUGCAUAAACUGGCUGCGUCCGAAUCGUAGAAGGGCCUGCAU` ?
502

And `CUAUUACGAGGAUAUGAUUUAAAUAACAUGAGGAUCACCCAUGUUUUUACGUUAUUAUGUUCAGAAGGCGUAUUGU` ?
26.5

And `GCACUGCGAGGAUAUACAUGAGGAUCACCCAUGUGUCGGCAGCGAUGCCAGUACAAAUGUAGAAGGCGCGUAAA` ?
25.9

And `GGCGGCGCGGGCCACCGCAGAACCAGAAGGACAUGAGGAUCACCCAUGUAACAAAACAGGGCGGUGUAGGAUAUGGCAGACCCG` ?
14.5

###

Tested on: MS2 coat protein
Assay: apparent Kd, MS2 coat protein; higher = weaker binding; RNA-MaP array; FMN 200 µM where present
Conditions: designed as: ON switch for flavin mononucleotide; no ligand
# apparent Kd per entry
// units = nM; emit number, no label

Below, each entry is followed by its recorded apparent Kd result.
biopolymer_sequence	apparent Kd (nM)
UUGGACGUCGUAGGAUAUGUAGGAUAUUCCAACAUGAGGAUCACCCAUGUUGACAUGGAAGAAGGACAGAAGGACGAUGUCCAU	4.28
GUGGGUGAUGGAGGAUAUGACGACGGGUUUUACAUGAGGAUCACCCAUGUGGCGUUCCGCAAAAGUCAGAAGGCCAGGUAUACU	332
GCGCUUAUACAGAAGGCCAUAUACAUGAGGAUCACCCAUGUUACAUGGUGGAGGAUAUGUUAUUAAGUACAGGUAGAUGAGCGC	5.98

Now consider a different sequence.
Tell me reported apparent Kd for `ACAUACAUUCGAGGAUAUCGGUGAUUUAUUUUACGAGAAGGCGAUUUAAGAUUUAUUAUUUUAGACAUGAGGAUCACCCAUGUA` , tested with MS2 coat protein.
27.7

###

Test system: MS2 coat protein
Test: apparent Kd, MS2 coat protein; higher = weaker binding; RNA-MaP array; FMN 200 µM where present
Conditions: designed as: OFF switch for flavin mononucleotide; no ligand
If the reported apparent Kd equals or exceeds 40 nM, assign y. If not, assign n.

Known results for sequences:
biopolymer_sequence	answer_label
AUUCGACAUGAGGAUCACCCAUGUAAGGAUAUGAUAGUUCUGAUAAGGGCUAGCCUAUUCAGAAGGUACGUGGC	n
UGAUUGCCUGUAAGGAUAUCUACGGCCGUUCGCUGGGAGAAGGUACAUGAGGAUCACCCAUGUACAGUCAUGGG	y
UAUAUAUAGUAAGGAUAUGUAUAUAUUUUAUCAACAGAAGGUACUGACAUGAGGAUCACCCAUGUUUUAGUGUGGGCAUGUAGA	y
GUGUAGAUAGGAUAUGCAAGAGUCUAGCGAAGCUAGAUUCUACAUGAGGAUCACCCAUGUAGAAGGGUCUACAC	n
UUUUAUAAUACCUCAUGUACAUGAGGAUCACCCAUGUUAACUAAGGAUAUAUAUAAAUUAAUAAUGUAGAAGGUAGUAAUAUUU	n

Confirm if apparent Kd reported for the sequence `ACAUUUUAUGCAGGAUAUUGACAUAUAUUUAAACAAGAAGGGCAUUACAUGAGGAUCACCCAUGUUAUAUUGGUAUAUAAGUUC` is 40 nM or above.
n

And `GUAGAGUAAGGAUAUGAUGAAUAGGAUAGAAUGGUUAGAAAUCAGAAGGUACAUGAGGAUCACCCAUGUAAUGU` ?
n

And `CUCGUGUCAGGAUAUGGAAGGCCGUUUGAUUAACGAGGGUACUAGAAGGGACAUGAGGAUCACCCAUGUAAAAA` ?
n

###

System: MS2 coat protein
Assay: apparent Kd, MS2 coat protein; higher = weaker binding; RNA-MaP array; theophylline 2 mM where present
Details: ligand present: theophylline; designed as: ON switch for theophylline
Using apparent Kd as the sorting value, the categories are small value: < 30 nM; mid value: ≥ 30 nM and < 80 nM; large value: ≥ 80 nM

biopolymer_sequence	answer_label
UAAAACAUGAGGAUCACCCAUGUAAUUGAUACCAGAGUGAUGAUCCUCCCUUGGCAGCAAAACGCUGAUUGGAAACAAUCAGCGA	large value

Entry `ACGGAGAUUGCUAAAUGUUGGCGAGCGGAUACCAGCCUAUUAUUGGGCCCUUGGCAGCCGACAUGAGGAUCACCCAUGUAAACAA` belongs to which category?
large value

And `UGUAUGUGAUUUGAUACCAGUUCUGCUGGUAAAACAUGAGGAUCACCCAUGUUACUUUGGGACCCUUGGCAGCAAAUCGCAUACU` ?
small value

And `AUCGUACCUGAGGAUACCAGCAUGUGAUCAUAACAUGAGGAUCACCCAUGUAAUCAGUGAUGCCCUUGGCAGCUUGGUCGAUACA` ?
mid value

And `GGGCCCGUAAGCAGGCCCACAGCGGGUGAUACCAGCAAUAAAACUUGCCCUUGGCAGCACACAGCUACAUGAGGAUCACCCAUGU` ?
mid value

And `AUACCUAAUGUUACAUUUACCUUAUCAGAUACCAGACUUUACGUUGUCCCUUGGCAGCUGUAUCACAUGAGGAUCACCCAUGUUG` ?
small value

And `AUCUUGUACCGUAAUACUUUACGUUGGGAUACCAGCAUGGACCCAUGCCCUUGGCAGCUUUACAUGAGGAUCACCCAUGUUGUAG` ?
mid value

And `CUCUGAGUCCGCAAGGACUCAGAGGCGGAUACCAGCGAGGUCCAUCGCCCUUGGCAGCCGAACAUGAGGAUCACCCAUGUCGGUA` ?
small value

And `UGAUCCUAGACUGAUACCAGUCAUGAGUACAUGAGGAUCACCCAUGUCCAGGGACUCAAUGACCCUUGGCAGCAGAACCUAGUUC` ?
large value

And `GCACUACAUGAGGAUCACCCAUGUGCAGAUACCAGAGGUGUAUGCCUCCCUUGGCAGCUGCGUCGCUCUGGAAACUUAUUGGUUU` ?
small value

And `AUUAAUAGUUGUGAUACCAGACGAACAUGAGGAUCACCCAUGUAACUUUUAGGUGUUGUAGUCCCUUGGCAGCACUAUGUAGUUA` ?
mid value

And `GGUGGCGUGACGGAUACCAGCCACCACCGAUAGACCACAUGAGGAUCACCCAUGUUGGGUGGCCCUUGGCAGCUGUCGUGCGGCG` ?
mid value

And `UGAUCCUACAGAGAUACCAGUGCCGCUAGAUAACUAUGCACAUGAGGAUCACCCAUGUAACACCCUUGGCAGCUCAACUAAAGGG` ?
large value

###

System: MS2 coat protein
Assay: apparent Kd, MS2 coat protein; higher = weaker binding; RNA-MaP array; FMN 200 µM where present
Conditions: designed as: ON switch for flavin mononucleotide; no ligand
# apparent Kd per entry
// units = nM; emit number, no label

Need apparent Kd of `UGGUACUAGGGAGGAUAUGGGAAGAUACAUGAGGAUCACCCAUGUUUAAGAAUGCCGAGAGGCAACUAGAAGGACCUAGUACCU` , thanks.
896

And `UGUUGUAUUACAGGAUAUCUAUUAUUUUUAUUUAGAGAAGGGUAUUCACAUGAGGAUCACCCAUGUAUAUACGAGGAAGAUGUG` ?
91.5

And `AGGUACUAGGGAGGAUAUGGGAAGAUACAUGAGGAUCACCCAUGUUUAAGAAUGCCGAGAGGCAACUAGAAGGCCCUAGUACCU` ?
454

And `GGAGCCGGCCUAGGAUAUUUCAUAAUAUUACAUGAGGAUCACCCAUGUAGGCCAGAAGGCCUUGGGAAGAAGGAGGUCGGCUCC` ?
42.6

###

# apparent Kd per entry
Tested on: MS2 coat protein
Test: apparent Kd, MS2 coat protein; higher = weaker binding; RNA-MaP array
Conditions: ligand present: flavin mononucleotide; designed as: ON switch for flavin mononucleotide
// units = nM; emit number, no label

Below, each entry is followed by its recorded apparent Kd result.
biopolymer_sequence	reading_unit	apparent Kd
CGCAGCAUCUAGAAGGGCGAAUCAACAAUACAACUAGUGAACAUGAGGAUCACCCAUGUAAUGACGCAGGAUAUAGUAGCAAAG	nM	13.7
GAAGCGUGAGCAGGAUAUUUAGACAUGAGGAUCACCCAUGUGUGCUAACUAGAAUGCAGGUUUUUAAAGAAGGGCUCCUAGAUU	nM	7.11
ACGUGACACGAGAAGGGUCUUAAAUGUUGAUUGACAGGAUAUCGUUCCCACGAUACAUAGACGGACAUGAGGAUCACCCAUGUG	nM	30.3
UCGAUCAUGUAGAAGGCAUCAGAAACUGGGUGAUGAGGAUAUACGUUAAGACAUGAGGAUCACCCAUGUAAGCAUUGCAAACAC	nM	86.2
ACAACUCUCACAGGAUAUUGACAUGAGGAUCACCCAUGUAAUCCAGGGCGAACAUAGGACUGACACAAGAAGGGUGACACCAUC	nM	16.1
CUAAAUUACGCGUAGGAUAUAUUAAAGACUACAUGAGGAUCACCCAUGUCACUUAAACCACGAGAAUAGAAGGACGUAGAAAGAGA	nM	9.06
UCAAUAUGUCGUUGACAUGAGGAUCACCCAUGUACUAACUAGCAGGAUAUCGUGAUUAACCCUACCGAGAAGGGCUGUUGUAUU	nM	34.9
AGUCAAAAUUAGAAGGAGCGUUGACCCUGUUAGCUAGGAUAUAAUUCAUGCGAACAUGAGGAUCACCCAUGUAGACGUACCAAC	nM	44.9

Need apparent Kd of `UACAUGAGGAUCACCCAUGUUAACGCUUAGAUGCAUCGACGUGAGGAUAUCGGGUUAAACCAGCACGAGAAGGCACAUCCAGAU` , thanks.
20.2

And `GUAAGCAAGCAAGGAUAUGAUAUAAAUUCGAUAUCAGAAGGUGCCUUUCCUAGUCGAAUACAUGAGGAUCACCCAUGUCAGCAA` ?
18

And `AUUCAAAUAACAGGAUAUGACAUAAACUACGAAUCAGAAGGGUUACAUAAAUCAACAUGAGGAUCACCCAUGUAUACUCCACAA` ?
11.7

Measured values drawn from the EternaBench riboswitch data for this set.
